From: paper PMC2706954

Listing: MIC S. epidermidis NCTC11047 of selected compounds
system: S. epidermidis NCTC11047; assay type: cell-based; settings: NCTC11047
Output spec: scalar in µg/mL, unitless text.

*Q* Fill in the blank: the reported MIC S. epidermidis NCTC11047 of C=C1NC(=O)C2NC(=O)[C@H](CC(C)C)NC(=O)C(NC(=O)[C@@H]3CSC(C)C(NC(=O)[C@H](Cc4ccccc4)NC(=O)C4NC(=O)[C@@H](N)CSC4C)C(=O)N[C@@H](CC(C)C)C(=O)N4CCC[C@H]4C(=O)NCC(=O)NCC(=O)N[C@@H](C)C(=O)NCC(=O)N[C@@H](C(C)C)C(=O)N3)C(C)SC[C@H](NC(=O)[C@H](CCC(=O)O)NC1=O)C(=O)N[C@@H]([C@@H](C)CC)C(=O)NC=CSC2C (stereo partly drawn) [G9A] is ____.
*A* 32

*Q* Fill in the blank: the reported MIC S. epidermidis NCTC11047 of C=C1NC(=O)C2NC(=O)[C@H](CC(C)C)NC(=O)C(NC(=O)[C@@H]3CSC(C)C(NC(=O)[C@H](Cc4c[nH]c5ccccc45)NC(=O)C4NC(=O)[C@@H](N)CSC4C)C(=O)N[C@@H](CC(C)C)C(=O)N4CCC[C@H]4C(=O)NCC(=O)NCC(=O)NCC(=O)NCC(=O)N[C@@H](C(C)C)C(=O)N3)C(C)SC[C@H](NC(=O)[C@H](CCC(=O)O)NC1=O)C(=O)N[C@@H]([C@@H](C)CC)C(=O)NC=CSC2C (stereo partly drawn) [F3W] is ____.
*A* 8

*Q* Fill in the blank: the reported MIC S. epidermidis NCTC11047 of C=C1NC(=O)C2NC(=O)[C@H](CC(C)C)NC(=O)C(NC(=O)[C@@H]3CSC(C)C(NC(=O)[C@H](Cc4ccccc4)NC(=O)C4NC(=O)[C@@H](N)CSC4C)C(=O)N[C@@H](CC(C)C)C(=O)N4CCC[C@H]4C(=O)N[C@@H](C)C(=O)NCC(=O)NCC(=O)NCC(=O)N[C@@H](C(C)C)C(=O)N3)C(C)SC[C@H](NC(=O)[C@H](CCC(=O)O)NC1=O)C(=O)N[C@@H]([C@@H](C)CC)C(=O)NC=CSC2C (stereo partly drawn) [G7A] is ____.
*A* 64
